// reported melting point for each item listed

According to the records, this molecule Cc1cc(COc2nn(Cc3ccccc3)cc2CO)ccc1OCc1nc(-c2ccco2)oc1C displays melting point of 91 to 92 °C

Looking up CC(C)n1nc(-c2nc(S(C)(=O)=O)c(N)nc2-c2ccccc2)ccc1=O , I found its melting point recorded as 249 to 251 °C

Please fill in: melting point reported for N#Cc1ccc([N+](=O)[O-])cc1[N+](=O)[O-] = 88 to 92 °C

// recorded melting point for Cn1cncc1C(N)(c1ccc(Cl)cc1)c1ccc2c(c1)c(CCc1cccc(Cl)c1)cc(=O)n2C (configuration not stated) : 165 °C

// field: melting point; key: COC(Nc1ccccc1)(OC)c1ccnc(C(=O)c2ccc(Cl)cc2)c1 ; value = 137 to 138 °C

Next:
// recorded melting point for O=C(c1sc(NC(=O)N2CCOCC2)nc1-c1ccco1)C1CCCC1 : 108 to 110 °C

# melting point of O=C(O)c1cc(-c2cccc(C(F)(F)F)c2)c(=O)n2ccccc12 = 228 to 229 °C
